For each of the sequences below, state its protein stability index.
Experiment: protein stability index of a GFP-peptide fusion (GPS, HEK-293T) (PSI 1-6); higher = more stable;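 also: 24-mer peptide tiles fused after GFP, lentivirally expressed, FACS-sorted into six equal bins by GFP/DsRed ratio, decoded by Illumina sequencing, PSI is the read-weighted mean bin number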
Details: treatment: DMSO; c terminus: a fixed tail appended
Give bare numbers.

// worked examples, protein stability index included
[
  {
    "sequence.record": "SDSGDGVYAGRPLSVIQMVAFLEQ [FBXO34]",
    "protein stability index": 2.92
  },
  {
    "sequence.record": "EAETPPNGPDCGYGSFHQQYWLDG [ATE1]",
    "protein stability index": 3.89
  },
  {
    "sequence.record": "MGNLVMFRKDSVLNILIQSLDWET [INTS3]",
    "protein stability index": 2.68
  },
  {
    "sequence.record": "QKVASNHSPFSSESRALSTSSNLG [TBX5]",
    "protein stability index": 4.19
  }
]

For each of the items listed, what is its protein stability index?
1. NSRVDDTFWASWRAFAQIGPARSG [MIR22HG]
2. AYTQTQFHNLRNTLDGYGIHPKSI [NFE2L1]
3. PVYLLLELEDKDGLQSAQPTEGQG [MYBL2]
4. SLKDGLSDSDSELSSSEGLEPGSA [PSD2]
5. YPSLYYPEMYILKGGYKEFFPQHP [CDC25B]
6. VEAMYCYLRCIQSEVSFEGAYGNL [SMG5]

Result:
1. 2.6
2. 2.57
3. 3.88
4. 5.47
5. 1.78
6. 3.13

* * *

Task for the reader: assign each of the following sequences its reported protein stability index.
Assay: protein stability index of a GFP-peptide fusion (GPS, HEK-293T) (PSI 1-6); higher = more stable
Settings: treatment: MLN4924 1 uM, 8 h; c terminus: a fixed tail appended
Give bare numbers.

Use the examples below as a reference point.
[
  {
    "sequence.record": "FRLLNLKNDSLRKRYDGLKYDVKK [TSN]",
    "protein stability index": 2.94
  },
  {
    "sequence.record": "VAIFGPPNTLYEGGYFKAHIKFPI [UBE2R2]",
    "protein stability index": 2.95
  }
]

Please examine the following record next.
// protein stability index lookup, sequence = QGRFCTIFRSYSRGAQGVILVYDI [RAB40A] , result: 2.99

* * *

Assay: protein stability index of a GFP-peptide fusion (GPS, HEK-293T) (PSI 1-6); higher = more stable
Settings: treatment: DMSO; c terminus: a fixed tail appended
measurement.name: protein stability index
One number for each entry.

Examples from the recorded data:
[
  {
    "sequence.record": "ASDPLLSSVSPAVSKASSRRSSFS [TFE3]",
    "protein stability index": 4.69
  },
  {
    "sequence.record": "CTGLKKAHRTEFYRNLTHNPPSDF [STK38L]",
    "protein stability index": 2.85
  },
  {
    "sequence.record": "TYSKFQPQSPDFLDITNPKAVLEN [UFD1]",
    "protein stability index": 3.92
  },
  {
    "sequence.record": "CHSHTVVQDYSYFFFLRMDENYNL [CCDC3]",
    "protein stability index": 2.49
  }
]

Hello, I would appreciate it if you could give protein stability index for each entry below.
1. VAELFCRRCRRCVCALCPVLGAHR [TRIM14]
2. YGPRWQEVIPYTPAMQRYVKRLHE [HMOX1]
3. GLASWPLARGIHVAGILSLLLGTA [POMT2]

Result:
2.25
3.09
2.52

* * *

Experiment: protein stability index of a GFP-peptide fusion (GPS, HEK-293T) (PSI 1-6); higher = more stable
Conditions: treatment: DMSO; c terminus: a fixed tail appended
Class Satisfied: protein stability index at least 3. Class Not satisfied: protein stability index below 3.

Study these solved cases before continuing.
[
  {
    "sequence.record": "ESDSCQKCEQPFFWNIKQMWDTKT [WDFY1]",
    "assigned.label": "Satisfied"
  },
  {
    "sequence.record": "PMPLSEGKSILLFGGAAAVAILAV [BCL2L13]",
    "assigned.label": "Not satisfied"
  },
  {
    "sequence.record": "FGPDSKSSALACTLPTLPAKVYVG [NCF4]",
    "assigned.label": "Not satisfied"
  },
  {
    "sequence.record": "DAAYRKALDLAREFLPQGPVAMRV [AUH]",
    "assigned.label": "Not satisfied"
  },
  {
    "sequence.record": "DEVQIGPETVMTTLYTAKKYAVPA [BTBD1]",
    "assigned.label": "Satisfied"
  }
]

Problem: Entry AAANKLFHYIPGTDILDLENQREN [PLEKHN1] : is its protein stability index no less than 3?
Result: Satisfied

* * *

Test: protein stability index of a GFP-peptide fusion (GPS, HEK-293T) (PSI 1-6); higher = more stable
Conditions: treatment: DMSO; c terminus: a fixed tail appended
Provide the reported protein stability index of each item.
One number for each entry.

Consider the following illustrative entries.
[
  {
    "sequence.record": "RDFDNNTPLHIAAQNNCPAIMNAL [FEM1A]",
    "result.number": 3.36
  },
  {
    "sequence.record": "MQAAEVFSQKHFPEVVQHEEFILL [KLHL12]",
    "result.number": 2.17
  },
  {
    "sequence.record": "IADRAAHDESPGNNVVDISVPPTT [RAB11B]",
    "result.number": 5.43
  },
  {
    "sequence.record": "SNTRDRYGRSWESYSSCGDFHYCD [RBMY1A1]",
    "result.number": 2.73
  },
  {
    "sequence.record": "GHIILNSMHKYQPRLHIVKADENN [TBX5]",
    "result.number": 2.82
  },
  {
    "sequence.record": "ELFAWGRGDSGRLGLGTRESHSCP [NEK8]",
    "result.number": 2.95
  }
]

Dear colleague, could you send me protein stability index for each of the items below? Thanks.
1. RRDPSIPIYGLRQSILLNTRLQDC [C22orf31]
2. ILGSGEEGPQVGPSAAQTLRSFCA [ADAMTS4]
3. LSVDPEEEREEGPPRIPQADQWKS [RHOBTB1]
4. EGAIAVHCKAGLGRTGTLIACYVM [CDC14A]

Result:
2.74
3.7
5.28
3.02

Give protein stability index for all sequences that follow.
1. MRGPEPGPQPTMEGDVLDTLEALG [FAM98B]
2. ALDYLQNQRIIHRDMKPDNILLDE [STK32A]

Result:
5.19
3.14

List the reported protein stability index of each sequence below.
1. EPVLLFGKIRRGAYALPAGLSAPA [TRIB3]
2. SRLMVVVKMDSSIQPGPFRAVLKY [RHOBTB2]
3. ALAEGYRYPELDTPKLDCFLSGME [TBX6]
4. PLGNTPMMNQSMMGMNMNIGMSAA [CLINT1]

Result:
2.76
2.9
3.2
3.07

Kindly give each listed record's protein stability index.
1. ALKKSADWVSDWSSRPENIPPKEF [BNIP3L]
2. HLKSSRNSTSVKKKSSRNIFSIVF [P2RY14]
3. VFLASGAVSVMKKCRKLEDPQSSS [SLC19A2]

Result:
[3.55, 2.39, 2.81]

* * *

Assay: protein stability index of a GFP-peptide fusion (GPS, HEK-293T) (PSI 1-6); higher = more stable
Details: treatment: DMSO; c terminus: a fixed tail appended
Think of 4 as a floor: if protein stability index stands on it or above, it is Criterion met; beneath it, Criterion not met.

// known answers, use as guide
[
  {
    "sequence.record": "QYVTFLRSFSDKQKISLLHSCTCV [ALG2]",
    "assigned.label": "Criterion not met"
  },
  {
    "sequence.record": "TDIKDESCCMTEEIFGPVTCVVPF [ALDH8A1]",
    "assigned.label": "Criterion not met"
  },
  {
    "sequence.record": "PALEEAPDSHQKRPQHSHSNKKRP [ELOA2]",
    "assigned.label": "Criterion met"
  },
  {
    "sequence.record": "FSAYIDSMAAVPTLELCHDELFAD [CEBPD]",
    "assigned.label": "Criterion not met"
  },
  {
    "sequence.record": "CTRDCMSFSVLNWDQVSRLHEVLT [TENT5C]",
    "assigned.label": "Criterion not met"
  }
]

Problem: Decide: protein stability index of SSNLLDLKNPFFRYTGTTPSPPPG [CARM1] >= 4?
Result: Criterion not met

Problem: # check: protein stability index of RVEESGSKKEGKRQGPKEPPRKSG [PBXIP1] is greater than or equal to 4
Result: Criterion met

* * *

Experiment: protein stability index of a GFP-peptide fusion (GPS, HEK-293T) (PSI 1-6); higher = more stable
Details: treatment: MLN4924 1 uM, 8 h; c terminus: native
Binary classification by protein stability index, with 3 as an inclusive lower bound for label 1; all other cases are label 0.

Problem: Reported protein stability index at or above 3? PEFIKVRENLRRIATLTSEEREL [FAM107A]
Result: label 1

Problem: Reported protein stability index reaches at least 3 for GKKQVPCFASMLTKKLHFFPKSN [CASP6] ?
Result: label 1

Problem: Is reported protein stability index greater than or equal to 3 here: HPSENIIAVAATNNLYIFQDKVN [PPP2R2B]
Result: label 0

Problem: Decide: protein stability index of TLSPHQYHSVHGVGMVPEWSDNS [TBX5] >= 3?
Result: label 1

Problem: Can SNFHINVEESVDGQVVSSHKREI [KRT15] be said to have protein stability index at or above 3?
Result: label 1
